Target Entity: KDM4B (Homo sapiens, UniProt O94953)
Construct: Human KDM4B 1-348 and KDM4A 1-347 were PCR amplified; His6 (N); made in house; host or cells: Escherichia coli BL21 (DE3)
Sequence (O94953 1-348): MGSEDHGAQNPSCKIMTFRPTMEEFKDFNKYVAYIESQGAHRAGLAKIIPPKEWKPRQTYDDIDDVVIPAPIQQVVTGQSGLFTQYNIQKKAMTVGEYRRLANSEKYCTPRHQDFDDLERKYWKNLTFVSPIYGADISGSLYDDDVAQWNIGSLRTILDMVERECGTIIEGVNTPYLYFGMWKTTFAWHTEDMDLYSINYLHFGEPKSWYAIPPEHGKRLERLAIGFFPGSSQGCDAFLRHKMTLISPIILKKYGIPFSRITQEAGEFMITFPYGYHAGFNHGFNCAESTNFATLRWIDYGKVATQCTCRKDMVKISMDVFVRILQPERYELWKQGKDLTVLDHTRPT
Protocol Description: Formaldehyde dehydrogenase-coupled demethylase assay, KDM4B
Assay type: biochemical
Parameters: concentration or dose not given beside the values
Experimental Parameters: FDH-coupled assay
Threshold 60%. Demethylase Residual Activity (%) below it: True. Demethylase Residual Activity (%) at it or above: False.

Is Demethylase Residual Activity (%) of C/C(CC(O)(C(F)(F)F)C(F)(F)F)=N/Nc1ccc([N+](=O)[O-])cc1[N+](=O)[O-] [NSC659196] strictly below 60%? True

Could you please tell me whether Demethylase Residual Activity (%) recorded for COC(=O)C(C(=O)C(=O)Nc1ccc([N+](=O)[O-])cc1[N+](=O)[O-])c1nc2ccc(Cl)cc2[nH]c1=O (centres unmarked) [NSC640999] is less than 60%? True

# TODO verify Demethylase Residual Activity (%) < 60% strictly for this compound: CCCCCC/C(C)=N/Nc1ccc([N+](=O)[O-])cc1[N+](=O)[O-] [NSC1018] False

Consider C/C(=N/Nc1ccc([N+](=O)[O-])cc1[N+](=O)[O-])c1ccccc1 [NSC6129] . Does its Demethylase Residual Activity (%) lie strictly below 60%? True

Please let me know if O=C(O)c1ccnc(C(=O)O)c1 [PD2, pyridine 2,4-dicarboxylic acids, reference compound] shows Demethylase Residual Activity (%) below 60%. True

Demethylase Residual Activity (%) strictly < 60% for this compound? O=C1C=Cc2ccccc2/C1=N/Nc1ccc([N+](=O)[O-])cc1[N+](=O)[O-] [NSC15975] False

Demethylase Residual Activity (%) under 60%? Item: COC1CC(OC(=O)c2ccc([N+](=O)[O-])cc2)C(OC(=O)c2ccc([N+](=O)[O-])cc2)C(C)O1 (centres unmarked) [NSC107408] False

Lab log: compare recorded Demethylase Residual Activity (%) with 60%; is it strictly lower for O=C1C=CC=C/C1=C\Nc1cc(C(=O)O)cc(C(=O)O)c1 [NSC124029] ? False

---

Protocol Description: in vitro
Format: cell-based
Experimental Parameters: human
Measured Property: IC50 at 3 days

Let me know recorded IC50 at 3 days for O=[N+]([O-])c1cc([N+](=O)[O-])c(/C=C/c2ccc(Cl)c(Cl)c2)cc1/C=C/c1ccc(Cl)c(Cl)c1 , thanks. 21.2 µM

---

Target Entity: KDM4A (Homo sapiens, UniProt O75164)
Construct: Human KDM4B 1-348 and KDM4A 1-347 were PCR amplified; His6 (N); made in house; host or cells: Escherichia coli BL21 (DE3)
Sequence (O75164 1-347): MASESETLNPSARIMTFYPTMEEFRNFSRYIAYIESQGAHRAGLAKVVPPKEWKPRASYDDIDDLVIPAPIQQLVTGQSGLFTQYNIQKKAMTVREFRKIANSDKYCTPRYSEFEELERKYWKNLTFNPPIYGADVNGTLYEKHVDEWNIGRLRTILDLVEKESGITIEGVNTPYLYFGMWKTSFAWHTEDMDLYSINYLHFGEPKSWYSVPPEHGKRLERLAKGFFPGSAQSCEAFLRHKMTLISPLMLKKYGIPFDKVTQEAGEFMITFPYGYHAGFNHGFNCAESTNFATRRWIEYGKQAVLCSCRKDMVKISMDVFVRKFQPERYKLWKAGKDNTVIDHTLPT
Protocol Description: Formaldehyde dehydrogenase-coupled demethylase assay, KDM4A
Type: biochemical
Set-up: concentration or dose not given beside the values
Experimental Parameters: FDH-coupled assay
Measured Property: Demethylase Residual Activity (%)
Reply with just the number (in %).

Illustrative cases are given below, each with its answer.
Molecule	Measured Property	Readout Units	Measured Number
O=C1C=Cc2ccccc2/C1=N/Nc1ccc([N+](=O)[O-])cc1[N+](=O)[O-]	Demethylase Residual Activity (%)	%	73
C/C(CC(O)(C(F)(F)F)C(F)(F)F)=N/Nc1ccc([N+](=O)[O-])cc1[N+](=O)[O-]	Demethylase Residual Activity (%)	%	92
O=C1C=CC=C/C1=C\Nc1cc(C(=O)O)cc(C(=O)O)c1	Demethylase Residual Activity (%)	%	93

--- query ---
Identify measured Demethylase Residual Activity (%) associated with O=C(O)c1ccnc(C(=O)O)c1 [PD2, pyridine 2,4-dicarboxylic acids, reference compound] 21
